Taken from the supplement of paper PMC10065799.

SH2 binding enrichment for assorted sequences
targetUnderTest: SHP2-C SH2;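 note: peptide library displayed on the E. coli surface as eCPX fusions, selected cells deep-sequenced, score is each peptide's frequency after selection divided by its frequency in the input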
testMethodNotes: SH2 binding enrichment of the phosphorylated peptide, bacterial display (enrichment ratio); higher = better substrate or ligand; peptides without Tyr show the background

Query: Which measured SH2 binding enrichment value corresponds to KKKKQYKDKYL [CASK_Y708] ?
Response: 0.244

Query: Query SVQVEYMKTIL [GLYATL2_Y127_D126E] next
Response: 0.777

Query: Follow-up item: VPLATYMRIFK [RPL21_Y30_YF]
Response: 0.546

Query: Follow-up entry: DLRGIYQKLVI
Response: 1.09

Query: Follow-up item: GREFIYVDPMQ [PDGFRA_Y574_H570R_YF]
Response: 0.596

Query: Now give it for SSKILYHIIKG [CDH17_Y489] too.
Response: 3.78

---

Recorded measurements of phosphorylation enrichment, one per entry
Tested on: c-Src
testMethodNotes: phosphorylation enrichment, bacterial display (enrichment ratio); higher = better substrate or ligand; peptides without Tyr show the background
Please respond with just the number, no unit label.

Below, 5 sequences whose answers are already recorded.
NTFENYWPFFQ [GATM_Y103_K102N_YF] ... 4.41
PMQLPHDSTWE [PDGFRB_Y589_Y589H] ... 0.628
NKEPRYQEDPP [TJP2_Y479] ... 0.461
EKLQQYLAPGM [EPHB3_Y600_I601L] ... 0.347
DCLASYLDKVR [KRT10_Y160_R156C] ... 0.419

Query: So what does the record say about phosphorylation enrichment for TTKAKYKTPIY [PLD2_Y573_T577I] ?
Response: 0.541

Query: Same read-out for LYDPDYMKVIL [CYP4A22_Y104] ?
Response: 0.988

Query: Next: GADDSYFTVRS [ZAP70_Y492_A495V_YF]
Response: 0.846

Query: Let us now turn to FSIDHYLGKEM [G6PD_Y202_R198S_YF]
Response: 0.464

Query: Next sequence: KLPFLYDDPFS [GPX2_Y127_P126L_YF]
Response: 0.641

Query: Continue with MALDIYRASFF [ALK_Y1278_R1275L_YF]
Response: 1.05

Query: Moving on to the next sequence: TRDVNYGWTIR [MT-CYB_Y75_I78T]
Response: 0.492

Query: // next record GMEIVYVYVKK [DNAI2_Y5]
Response: 0.632

Query: And the next one, GKMSQYLESMQ [CYB5R3_Y130] ?
Response: 0.517

Query: Same for FSGKAYADEEQ [CRIM1_Y826_R831Q]
Response: 0.41

---

targetUnderTest: Fes (UniProt P07332)
Sequence (P07332 whole entry, looked up): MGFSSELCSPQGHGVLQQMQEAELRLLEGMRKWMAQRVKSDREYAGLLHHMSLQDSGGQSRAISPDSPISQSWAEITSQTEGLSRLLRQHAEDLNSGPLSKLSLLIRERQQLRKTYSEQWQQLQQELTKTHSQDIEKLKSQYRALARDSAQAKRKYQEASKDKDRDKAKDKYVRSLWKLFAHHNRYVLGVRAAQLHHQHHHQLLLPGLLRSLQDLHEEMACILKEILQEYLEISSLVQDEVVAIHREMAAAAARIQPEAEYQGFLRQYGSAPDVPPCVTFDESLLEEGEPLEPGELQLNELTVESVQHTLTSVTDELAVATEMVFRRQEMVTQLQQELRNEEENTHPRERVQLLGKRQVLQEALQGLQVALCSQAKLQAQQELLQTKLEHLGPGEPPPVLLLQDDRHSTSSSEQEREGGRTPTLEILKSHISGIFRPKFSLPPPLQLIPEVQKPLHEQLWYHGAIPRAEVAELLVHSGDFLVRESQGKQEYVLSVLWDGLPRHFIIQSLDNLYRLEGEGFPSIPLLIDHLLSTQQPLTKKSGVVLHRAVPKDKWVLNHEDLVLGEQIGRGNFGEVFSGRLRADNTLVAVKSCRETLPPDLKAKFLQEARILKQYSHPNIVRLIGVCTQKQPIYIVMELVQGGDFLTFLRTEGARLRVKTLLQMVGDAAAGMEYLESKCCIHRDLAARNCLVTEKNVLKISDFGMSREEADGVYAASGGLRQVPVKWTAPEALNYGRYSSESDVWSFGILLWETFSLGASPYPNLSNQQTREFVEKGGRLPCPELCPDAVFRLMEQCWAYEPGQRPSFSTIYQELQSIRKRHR
testMethodNotes: phosphorylation enrichment, bacterial display (enrichment ratio); higher = better substrate or ligand; peptides without Tyr show the background
phosphorylation enrichment values for the sequences below.
Hey, just send me the number, nothing else.

CTNPRYLAAGS [RABL3_Y185] ... 0.767
LAEMNYVHQDL [EPHB1_Y740_R743Q] ... 1.22
STEAIYRRYSK [SH3PXD2B_Y42] ... 0.418
LSDVIYVILRK [PMP22_Y153_G150D] ... 1.28
PFIDSYEKDVA [PGM1_Y521_L516P_YF] ... 1.04
KRLWDYGMSSS [F8_Y1728_E1723K] ... 0.706

Query: Entry under review: ETKTPYTVILI [SBDS_Y128_R126T] . Reported phosphorylation enrichment?
Response: 1.22

Query: Would you mind doing EKEQNYDLTEV [ECD_Y448] as well?
Response: 1.31

---

targetUnderTest: FGFR1 (UniProt P11362)
Sequence (P11362 whole entry, looked up): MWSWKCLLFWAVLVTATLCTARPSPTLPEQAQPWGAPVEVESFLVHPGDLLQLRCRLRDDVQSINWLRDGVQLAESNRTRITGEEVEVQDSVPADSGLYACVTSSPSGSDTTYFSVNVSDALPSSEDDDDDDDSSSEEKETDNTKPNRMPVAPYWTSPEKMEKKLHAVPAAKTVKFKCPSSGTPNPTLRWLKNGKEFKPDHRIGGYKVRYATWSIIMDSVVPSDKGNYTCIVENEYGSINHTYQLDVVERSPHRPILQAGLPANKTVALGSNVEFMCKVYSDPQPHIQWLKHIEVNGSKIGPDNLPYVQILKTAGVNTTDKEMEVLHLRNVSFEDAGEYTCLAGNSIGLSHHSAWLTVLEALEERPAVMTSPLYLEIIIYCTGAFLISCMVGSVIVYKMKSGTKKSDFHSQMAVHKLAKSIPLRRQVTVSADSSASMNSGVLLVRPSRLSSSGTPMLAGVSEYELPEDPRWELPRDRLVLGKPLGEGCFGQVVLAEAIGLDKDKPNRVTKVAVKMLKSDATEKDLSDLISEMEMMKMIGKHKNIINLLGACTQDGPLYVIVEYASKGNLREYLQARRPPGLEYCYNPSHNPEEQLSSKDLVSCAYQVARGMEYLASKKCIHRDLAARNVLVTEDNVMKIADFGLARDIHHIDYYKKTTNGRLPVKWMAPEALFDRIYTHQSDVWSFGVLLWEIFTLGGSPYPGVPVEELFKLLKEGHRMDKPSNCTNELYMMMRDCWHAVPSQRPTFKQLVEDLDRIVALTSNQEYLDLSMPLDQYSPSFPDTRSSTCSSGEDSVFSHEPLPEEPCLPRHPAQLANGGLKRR
testMethodNotes: phosphorylation enrichment, bacterial display (enrichment ratio); higher = better substrate or ligand; peptides without Tyr show the background
Quick list: phosphorylation enrichment per entry.

Query: Request the reported phosphorylation enrichment associated with ASLEAYCKHKF [RXRA_Y403_YF]
Response: 0.654

Query: How about this sequence: SVTCTYSPALS [TP53_Y126_N131S]
Response: 0.396

Query: Same thing, different sequence: SSYSRYIMMPN [LEF1_Y114_G113R]
Response: 1.79

Query: Also, LLKAKYELLNA [POLR3A_Y714] please.
Response: 0.423

Query: Now consider FVTSMYNEILM [TRPV1_Y310] .
Response: 0.641

Query: # iterate: SNMPTYSGHFS [GRIN2A_Y1224_T1229S]
Response: 0.433

Query: What would you report for TVFENYVADIK [RHOA_Y42_E47K] ?
Response: 0.48

Query: Proceed to SEHLTYLEFKS [RASGRP1_Y215]
Response: 0.729

Query: Now consider PVDVAYRRGYF [PLEC_Y2967] .
Response: 0.565

---

targetUnderTest: EPHB2 (UniProt P29323)
Sequence (P29323 whole entry, looked up): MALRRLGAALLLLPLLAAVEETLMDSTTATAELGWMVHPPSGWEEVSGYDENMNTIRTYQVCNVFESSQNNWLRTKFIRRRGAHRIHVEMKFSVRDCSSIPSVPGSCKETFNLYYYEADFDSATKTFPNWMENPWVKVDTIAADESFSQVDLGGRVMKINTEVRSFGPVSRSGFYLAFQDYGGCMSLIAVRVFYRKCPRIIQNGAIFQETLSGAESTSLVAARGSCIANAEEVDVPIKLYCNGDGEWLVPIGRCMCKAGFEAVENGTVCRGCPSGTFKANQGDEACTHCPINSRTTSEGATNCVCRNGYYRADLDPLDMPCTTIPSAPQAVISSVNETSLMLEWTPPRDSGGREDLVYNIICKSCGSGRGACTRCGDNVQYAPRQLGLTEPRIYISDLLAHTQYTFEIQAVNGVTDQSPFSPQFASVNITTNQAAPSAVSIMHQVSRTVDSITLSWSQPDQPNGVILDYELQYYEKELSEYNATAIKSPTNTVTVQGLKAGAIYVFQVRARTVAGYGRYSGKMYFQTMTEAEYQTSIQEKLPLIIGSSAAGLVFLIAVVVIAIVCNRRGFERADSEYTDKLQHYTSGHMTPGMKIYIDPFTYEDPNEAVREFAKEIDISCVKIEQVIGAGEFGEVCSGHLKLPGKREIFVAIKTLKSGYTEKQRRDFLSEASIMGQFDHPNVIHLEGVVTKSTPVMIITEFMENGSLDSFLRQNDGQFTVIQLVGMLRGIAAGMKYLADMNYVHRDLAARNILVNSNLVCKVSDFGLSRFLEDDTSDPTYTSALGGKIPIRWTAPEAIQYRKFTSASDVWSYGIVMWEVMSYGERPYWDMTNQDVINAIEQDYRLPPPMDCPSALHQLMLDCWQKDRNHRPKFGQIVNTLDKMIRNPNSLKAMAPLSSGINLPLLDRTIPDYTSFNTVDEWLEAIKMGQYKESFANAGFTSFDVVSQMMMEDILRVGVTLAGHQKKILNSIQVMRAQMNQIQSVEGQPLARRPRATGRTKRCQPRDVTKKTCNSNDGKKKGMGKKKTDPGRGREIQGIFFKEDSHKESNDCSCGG
testMethodNotes: phosphorylation enrichment, bacterial display (enrichment ratio); higher = better substrate or ligand; peptides without Tyr show the background
Collected phosphorylation enrichment values appear next to each entry.

TIMTDYNPNYC [ALK_Y1092] ... 0.531

Query: # get_value(readout='phosphorylation enrichment', item= GEFHVYRHLRW [PRKRIP1_Y82_R87W] )
Response: 0.458

Query: Next sequence up: SQETYYRVSNM [ABCD1_Y181_Q178E]
Response: 2.95

Query: Check SGLDSYVRSLP [TRAPPC1_Y133_R129G] too.
Response: 0.581

Query: // same read-out, input: DASENYFVMDS [TMEM240_Y77_T80M]
Response: 4.43

Query: Same lookup for SSPVPYLSPET [TJP1_Y931] , please.
Response: 0.502

Query: Entry GKMSQYLESMQ [CYB5R3_Y130] please
Response: 0.454

Query: Same again, this time with QGIYGYHHYMQ [UFSP2_Y287]
Response: 8.11

Query: Do the same for VAFLFYKSIGP [ADGRL4_Y302_V300L_YF] please
Response: 0.664

---

Test system: c-Abl (mouse)
testMethodNotes: phosphorylation enrichment, bacterial display (enrichment ratio); higher = better substrate or ligand; peptides without Tyr show the background
readoutLabel: phosphorylation enrichment
Kindly provide the number alone.

Below, each entry is followed by its recorded phosphorylation enrichment result.
PLEGEYFTLQI [TP53_Y327_D324E] ... 2.98
RPQDGFRIVQH [PTPRT_Y1329_Y1329F] ... 0.836
KIEGVYARDET [RPL35A_Y34] ... 0.633
QDEHGYIFRCF [HSPB1_Y133_S135F] ... 1.19
LSQAKYQIRYR [CRLF1_Y272_F268S] ... 0.592

Query: Lab request: please report phosphorylation enrichment under test system c-Abl (mouse) for LYDPDYMKVIL [CYP4A22_Y104]
Response: 1.36

Query: Try the sequence QNTGGYFDLFG [PTPN11_Y62_D61G_YF]
Response: 0.27

Query: Also check KDQGTYEDFVE [MYL6_Y86_YF]
Response: 1.97

---

targetUnderTest: FGFR1 (UniProt P11362)
testMethodNotes: phosphorylation enrichment, bacterial display (enrichment ratio); higher = better substrate or ligand; peptides without Tyr show the background
Attribute: phosphorylation enrichment

Field: example entries. Status: answers known.
LNTFHYAGVSA [POLR2A_Y1109] ... 0.407
ICRWVYPLTPE [EIF2B5_Y319_R315C] ... 0.516
GKLIFYDLRGE [KARS1_Y145] ... 0.517
QGIYGYHHYMQ [UFSP2_Y287] ... 1.32
VSTAVYKRFAS [BEST1_Y148_P152A] ... 0.507
ISISPYPAILH [IFT80_Y588_T586S] ... 0.341

Query: Data request, read-out phosphorylation enrichment, for QDIMAYRGREV [BCL6_Y157]
Response: 0.565

---

targetUnderTest: Fes (UniProt P07332)
testMethodNotes: phosphorylation enrichment, bacterial display (enrichment ratio); higher = better substrate or ligand; peptides without Tyr show the background
Entries annotated with measured phosphorylation enrichment
# answer = number (no unit)

SGGLDYGMVGG [TNRC6B_Y1382_M1380L] ... 0.722

Query: Would you mind telling me what phosphorylation enrichment value was observed for IAKNPYDPPGR ?
Response: 0.689

Query: Ok, now GAMGHYVLAER [HFE_Y342]
Response: 0.659

Query: Try ESAAIYNPVIF [RHO_Y301_K296E_YF] next.
Response: 1.25

Query: Another sequence: GTHCHYKAPIV [FZD9_Y569_T573I]
Response: 0.858

Query: Repeat for the following sequence: WEQELYSQLVF [WAS_Y102_YF]
Response: 2.71

Query: Try AKRKGYDMQVD [NEB_Y2770_R2773Q] next.
Response: 0.395

Query: Okay, and GGCQEYTGAPY [NAXD_Y85] ?
Response: 1.06

Query: And what about the sequence LIQRNYKLAAQ [ALPK2_Y1975] ?
Response: 1.21

Query: Now the same for QDDFSYPSRQM [LDLR_Y847_G844D_YF]
Response: 0.826
